# assay: small-molecule microarray binders of probe aCHRDL2, primary screen, biochemical, biotinylated probe, 635/667 nm fluorescence (AID 1100)
# settings: higher = more signal
Given measured composite z-score, output y if it is greater than or equal to 0.3 and n if not.

INSERT INTO assay_data (compound, assigned_category) VALUES
  ('CCOC(=O)CCN1C(=O)[C@H]2[C@H]3[C@H](O)[C@H](O)CC(=NOC[C@@H](O)COCc4ccco4)[C@@H]3CC[C@H]2C1=O', 'y'),
  ('COc1ccc(O[C@H]2C=C[C@@H](c3ccccc3)O[C@@H]2COC(=O)CCC(C)=NO[C@@H](C)c2cc(-c3c(C)cc(C)cc3C)no2)cc1', 'n'),
  ('CS(=O)(=O)CCOC(=O)C1=CC(CCCO)=CC(c2cccs2)N(Cc2cccc(OC(F)(F)F)c2)C=C1C(=O)OCCS(C)(=O)=O (configuration not stated)', 'y'),
  ('CO[C@@H]1COC(=O)CCC[C@@H](C)[C@H](OC)COC(=O)[C@H](Cc2ccccc2)NC(=O)CC=C[C@H]1C', 'n'),
  ('COC(=O)[C@H](C)NC(=O)CCC1CC(OC(=O)NCc2cccc3ccccc23)CC2(CCCC(COC(=O)NCC3CCCCC3)O2)O1 (some centres not stated)', 'n'),
  ('CC[C@@H](c1ccccc1)n1c(=O)n2n(c1=O)[C@H]1[C@H](O)[C@@H]3O[C@@H]3C(=NOCC=C(C)CCC=C(C)C)[C@H]1CC2', 'n'),
  ('COC(=O)C1=CCC(c2cccc(Cl)c2)O1 (configuration not stated)', 'y');
